tested on: Hs-578T; assay: NCI tumour cell line growth inhibition, 48 h
Calls of active or inactive are those of the source. No stated cut-off is given here; in the data, active = GI50 up to about 1.1 µM and inactive = higher.
GI50 values by entry

[[record]]
compound = "C=C1C[C@@H](O)[C@@H](Br)C(C)(C)[C@]12CCC(C)(Cl)C(Br)C2 (some centres not stated)"
measured = "27.4 µM (inactive)"


Here COC(=O)n1c(=O)n(-c2ccccc2)c(=O)n1C(=O)Nc1ccccc1 was tested on Hs-578T, and its GI50 came to > 100 µM (inactive)

The compound CC(=O)N1C(c2[nH]c3ccccc3c2-c2ccccc2)CCN1c1ccccc1 (configuration not stated) , when measured on Hs-578T, yielded GI50 of > 10 µM (inactive)

Hs-578T data for CCC/N=C1\S/C(=C/c2ccc(OC)c(OC)c2)C(=O)N1c1ccccc1 ; its GI50: 9.1 µM (inactive)

Entry O=C(c1cccs1)N(C(=S)OCCOc1ccccc1)c1ccccc1 , Hs-578T data, GI50 value: 58.6 µM (inactive)

Let me check: [O-][n+]1c2c([n+]([O-])c3ccccc31)-c1cccc3cccc-2c13 , system Hs-578T, measured GI50 is 32.9 µM (inactive)

Record CN1C/C(=C\c2cccs2)C(O)/C(=C/c2cccs2)C1 (configuration not stated) has Hs-578T GI50 equal to > 100 µM (inactive)

The observed GI50 for O=c1[nH]c(=O)n(C2COC(CO)C2O)cc1F (configuration not stated) when tested with Hs-578T stands at > 100 µM (inactive)

Lab note: compound CCCC[C@@H]1CCN2C[C@@H](O)[C@@H](O)[C@@H]2[C@H]1O tested on Hs-578T; recorded GI50 was > 100 µM (inactive)

Form field, GI50 with Hs-578T, item CNc1ccc([S+]([O-])Nc2ccccc2)cc1 (configuration not stated) : 37.7 µM (inactive)

Lab note: compound Cn1c(=O)cc(NNc2ccccc2)[nH]c1=O tested on Hs-578T; recorded GI50 was > 100 µM (inactive)

// returns GI50 for O=C(O)c1cc(-c2ccc3c(O)c(O)ccc3c2)ccc1O with Hs-578T; value = > 75 µM (inactive)

Param item: CN(C)Cc1cc(C(=O)/C=C/c2ccc(O)cc2)cc(CN(C)C)c1O ; param system: Hs-578T; output GI50: 60.5 µM (inactive)

// assay Hs-578T, entry O=C1C(Cl)=C(Cl)C(Cl)(Cl)C(Cl)C1(Cl)Cl (configuration not stated) , GI50 value = 21.3 µM (inactive)

The compound O=C1/C(=C/Cc2ccco2)N=C(c2ccccc2)N1c1nc2c(Cl)cc(Cl)cc2s1 on Hs-578T: GI50 was 23.6 µM (inactive)

Kindly note: Hs-578T, Cc1nc2ccc(NC(=S)Nc3ccccc3)cc2c(=O)n1-c1ccccc1 , GI50 value reported: > 100 µM (inactive)

Kindly note: Hs-578T, C#CCOCC12C=CC(O1)C1C(=O)OCC12 (configuration not stated) , GI50 value reported: > 100 µM (inactive)

Hey, Hs-578T data for Nn1c(Cc2ccc([N+](=O)[O-])cc2)n[nH]c1=O : GI50 came out at > 100 µM (inactive)

Per the reported Hs-578T data, CCCCCCNC(=O)c1cc(C#Cc2cc(OC)ccc2OC)ccc1OC has GI50 of > 100 µM (inactive)

Lab note: compound CC1CCC(C(C)C2C(O)CC3C4CC=C5CC(O)CCC5(C)C4CCC32C)NC1 (configuration not stated) tested on Hs-578T; recorded GI50 was 35.9 µM (inactive)

Lab note: compound CC1(C)OC2C(=O)C=C(COCc3ccccc3)C2O1 (configuration not stated) tested on Hs-578T; recorded GI50 was 27 µM (inactive)

GI50 of CSc1ccc(/C=C/C(=O)c2nc3ccccc3[nH]2)cc1 , assay on Hs-578T, is 37.2 µM (inactive)
